# assay: NCI Yeast Anticancer Drug Screen. Data for the rad14 strain (AID 159);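 further: 0% = growth of vehicle-treated control cultures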
# condition-info: S. cerevisiae rad14 strain growth inhibition; at 33.0 µM; active compounds read high
This is part of a sample that, as a whole, favours compounds with a hit. Of some 79,000 tested, about 15% had one in any assay. Activity calls are given as the source filed them. No stated cut-off is given here; in the data, active means growth inhibition above about 70%; inactive means the rest.
Property: growth inhibition; scope: individual molecules

> print(dat)
                                   molecule  recorded.endpoint             val
1     Cc1nc2ccccc2c(=O)n1NC(=O)c1ccc(CS)cc1  growth inhibition  26% (inactive)
2                    CC(C)(C(=O)NN)c1ccccc1  growth inhibition  21% (inactive)
3  CCOC(=O)C(NC(=O)c1ccccc1)[CH](c1ccccc1)[Sn]([c]1ccccc1)([c]1ccccc1)[c]1ccccc1 (stereo not drawn)  growth inhibition  17% (inactive)
4  CCCCCCCCCCCCCCCCOCC(Cl)COP(=O)(O)OP(=O)(O)OCC1OC(n2cnc3c(N)ncnc32)C(O)C1O (stereo not drawn)  growth inhibition  35% (inactive)
5            O=C(O)/C=C\C(=O)NNc1ccc(Br)cc1  growth inhibition    99% (active)
6            NNc1nnc(-c2ccccc2)nc1Cc1ccccc1  growth inhibition    96% (active)

// growth inhibition value for CC1=Cc2ccc(C)cc2C(=O)C1=O : 99% (active)

// growth inhibition value for CCN(CC)c1cccc(Nc2nc3ccccc3s2)c1 : 7% (inactive)

###

# assay: NCI Yeast Anticancer Drug Screen. Data for the mlh1 strain (AID 171);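 further: 0% = growth of vehicle-treated control cultures of the same strain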
# condition-info: S. cerevisiae mlh1 strain growth inhibition; at 11.0 µM
About 79,000 compounds went through this panel and 15% of them were active in at least one assay; those are over-represented in the sample as a whole. Active and inactive are the calls of the source. Cut-off read from the data, not from the text of the source: active = growth inhibition above about 70%; inactive = the rest.
Your answer must be one of the following: active, inactive

> print(dat)
                                   compound  class.assignment
1  CN(C)CCNC(=O)c1cccc2nc3c(ccc4ccccc43)nc12          inactive
2   OC1C#CCSCC#C/C=C\1 (stereo unspecified)          inactive
3      Cc1ccc2nc(N/N=C/c3ccc(C)s3)cc(C)c2c1          inactive

Ask: Each compound tested received a call. Report the one for BrC/C=C/C[P+](c1ccccc1)(c1ccccc1)c1ccccc1 .
Result: active

Ask: Each compound tested received a call. Report the one for Cc1nc2ccc(Br)cc2c(=O)n1-c1ccc(NC2OCC(O)C(O)C2O)cc1 (stereo unspecified) .
Result: inactive

Ask: Each compound tested received a call. Report the one for c1cc2ccc3cc4ncccc4c4ccc(c1)c2c34 .
Result: inactive

###

# assay: NCI Yeast Anticancer Drug Screen. Data for the CLN2oe strain (AID 163);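 further: 0% = growth of vehicle-only control cultures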
# condition-info: S. cerevisiae CLN2oe strain, at 3.7 µM, active compounds read high
This is part of a sample that, as a whole, favours compounds with a hit. Of some 79,000 tested, about 15% had one in any assay.
recorded-endpoint: growth inhibition (%)
Answer format: numeric, % implied, no suffix.

# count of solved cases: 5
> print(dat)
                                   compound  recorded.endpoint  val
1                    CCCCCCCCCC/C=C\CC(=O)O  growth inhibition   -1
2      COC1=C(N=[N+]=[N-])C(=O)c2ncccc2C1=O  growth inhibition   13
3  CCOC(=O)/C(O)=C(/C=N/C(=S)Nc1c(CC)cccc1CC)C(=O)OCC  growth inhibition  -23
4          Cc1ccc(Cl)c2c(=O)c3ccccc3[nH]c12  growth inhibition   -5
5  BrC/C=C/C[P+](c1ccccc1)(c1ccccc1)c1ccccc1  growth inhibition   10

// growth inhibition value for Cc1ccc(Nc2n[nH]c(=S)s2)cc1C : -8

// growth inhibition value for CCN(CC)c1ccc(N=Nc2cc(S(=O)(=O)O)ccc2O)c(O)c1 : 18

// growth inhibition value for Cn1c(COc2ccc(/C=N/NC(=O)CCC(=O)N/N=C/c3ccc(OCc4c[n+]5ccccc5n4C)cc3)cc2)c[n+]2ccccc12 : -3

// growth inhibition value for c1ccc(N/N=C2\CC(c3ccccc3)Oc3ccccc32)cc1 (stereo unspecified) : 1

// growth inhibition value for O=C(O)[C@H]1[C@@H](C2CCCCC2)O[C@@H](C2CCCCC2)O[C@H]1C(F)(F)F : -1

// growth inhibition value for CCOC(=O)C1=C(C)NC(C)=C(C(=O)OCC)C1c1ccc(Cl)cc1 : -10
